Source: ChEMBL document CHEMBL4808148

Entries and their measured inhibition follow.
Target: Protein deacetylase HDAC6 (Homo sapiens)
Sequence (whole entry): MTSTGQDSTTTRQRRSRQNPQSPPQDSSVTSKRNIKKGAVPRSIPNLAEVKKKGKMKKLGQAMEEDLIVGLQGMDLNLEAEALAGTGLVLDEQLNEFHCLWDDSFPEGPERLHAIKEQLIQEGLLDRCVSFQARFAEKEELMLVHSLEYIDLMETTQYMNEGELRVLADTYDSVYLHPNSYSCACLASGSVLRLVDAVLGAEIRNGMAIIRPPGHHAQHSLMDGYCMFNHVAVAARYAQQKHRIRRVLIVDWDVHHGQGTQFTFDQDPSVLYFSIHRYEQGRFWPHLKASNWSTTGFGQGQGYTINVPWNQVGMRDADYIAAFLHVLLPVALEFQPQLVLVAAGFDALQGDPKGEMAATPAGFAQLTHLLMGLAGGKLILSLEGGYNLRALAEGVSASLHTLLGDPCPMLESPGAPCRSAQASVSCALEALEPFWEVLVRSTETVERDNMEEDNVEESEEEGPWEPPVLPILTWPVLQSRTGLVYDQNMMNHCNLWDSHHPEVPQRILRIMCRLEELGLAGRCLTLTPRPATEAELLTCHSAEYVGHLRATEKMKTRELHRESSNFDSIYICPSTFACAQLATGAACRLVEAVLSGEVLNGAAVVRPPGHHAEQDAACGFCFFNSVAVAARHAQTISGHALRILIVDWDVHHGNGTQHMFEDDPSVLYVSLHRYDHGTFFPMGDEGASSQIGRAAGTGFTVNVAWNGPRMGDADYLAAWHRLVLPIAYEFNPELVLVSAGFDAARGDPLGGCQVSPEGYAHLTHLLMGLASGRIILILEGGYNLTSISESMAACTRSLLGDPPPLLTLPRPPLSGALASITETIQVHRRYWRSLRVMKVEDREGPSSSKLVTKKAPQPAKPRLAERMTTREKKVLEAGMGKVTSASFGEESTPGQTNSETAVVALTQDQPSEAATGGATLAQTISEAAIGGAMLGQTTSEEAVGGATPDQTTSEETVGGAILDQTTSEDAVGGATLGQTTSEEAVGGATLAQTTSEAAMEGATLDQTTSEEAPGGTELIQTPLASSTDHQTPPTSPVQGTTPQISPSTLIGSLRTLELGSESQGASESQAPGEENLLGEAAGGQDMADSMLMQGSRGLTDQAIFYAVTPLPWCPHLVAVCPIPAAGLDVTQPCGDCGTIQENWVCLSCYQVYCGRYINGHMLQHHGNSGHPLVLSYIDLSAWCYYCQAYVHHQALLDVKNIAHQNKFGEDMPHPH
Details: at 10 µM
About 390 (7%) of roughly 5,600 compounds showed an effect of 50% or more. The sample holds strong results, similar compounds and a random draw of the others, so the mix is not that of the screen.
readout label: inhibition (%)

[[record]]
molecule = "CN1CCN(c2ccc(-c3cccc(CN4CCOCC4)c3)cc2NC(=O)c2c[nH]c(=O)cc2C(F)(F)F)CC1"
reading = 19.4

[[record]]
molecule = "C[C@]1(O)C[C@@H](c2nc(-c3ccc4ccc(-c5ccccc5)nc4c3)c3c(N)nccn32)C1"
reading = 29.4

[[record]]
molecule = "O=c1ccc2cc3ccoc3cc2o1"
reading = 17.5

[[record]]
molecule = "COc1cc2c(cc1OC)-c1cc3nc4ccccc4nc3n1C(C)(C)C2"
reading = 19.3

[[record]]
molecule = "CC(C)(C)c1cc(C(=O)/C(C#N)=N/Nc2cccc(Cl)c2)no1"
reading = 58.9

[[record]]
molecule = "N#Cc1cc(F)cc(-c2nc(-c3ccc(F)cn3)no2)c1"
reading = 83.6

[[record]]
molecule = "O=C1/C(=C/c2ccccc2)C(NC2CCCCC2)c2ccccc21 (stereo not given)"
reading = 8.83

[[record]]
molecule = "Cc1c(F)cccc1NC(=O)Nc1ccc(Cl)c(S(=O)(=O)[C@H]2CCCNC2)c1O"
reading = 36.1

[[record]]
molecule = "O=c1[nH]cnc2nc[nH]c12"
reading = 57.8

[[record]]
molecule = "CC[C@@]1(O)C(=O)OCc2c1cc1n(c2=O)Cc2cc3c([N+](=O)[O-])cccc3nc2-1"
reading = 11.9

